# TEST_SYSTEM: UniProt:Q9Y233
# Sequence (Q9Y233 whole entry): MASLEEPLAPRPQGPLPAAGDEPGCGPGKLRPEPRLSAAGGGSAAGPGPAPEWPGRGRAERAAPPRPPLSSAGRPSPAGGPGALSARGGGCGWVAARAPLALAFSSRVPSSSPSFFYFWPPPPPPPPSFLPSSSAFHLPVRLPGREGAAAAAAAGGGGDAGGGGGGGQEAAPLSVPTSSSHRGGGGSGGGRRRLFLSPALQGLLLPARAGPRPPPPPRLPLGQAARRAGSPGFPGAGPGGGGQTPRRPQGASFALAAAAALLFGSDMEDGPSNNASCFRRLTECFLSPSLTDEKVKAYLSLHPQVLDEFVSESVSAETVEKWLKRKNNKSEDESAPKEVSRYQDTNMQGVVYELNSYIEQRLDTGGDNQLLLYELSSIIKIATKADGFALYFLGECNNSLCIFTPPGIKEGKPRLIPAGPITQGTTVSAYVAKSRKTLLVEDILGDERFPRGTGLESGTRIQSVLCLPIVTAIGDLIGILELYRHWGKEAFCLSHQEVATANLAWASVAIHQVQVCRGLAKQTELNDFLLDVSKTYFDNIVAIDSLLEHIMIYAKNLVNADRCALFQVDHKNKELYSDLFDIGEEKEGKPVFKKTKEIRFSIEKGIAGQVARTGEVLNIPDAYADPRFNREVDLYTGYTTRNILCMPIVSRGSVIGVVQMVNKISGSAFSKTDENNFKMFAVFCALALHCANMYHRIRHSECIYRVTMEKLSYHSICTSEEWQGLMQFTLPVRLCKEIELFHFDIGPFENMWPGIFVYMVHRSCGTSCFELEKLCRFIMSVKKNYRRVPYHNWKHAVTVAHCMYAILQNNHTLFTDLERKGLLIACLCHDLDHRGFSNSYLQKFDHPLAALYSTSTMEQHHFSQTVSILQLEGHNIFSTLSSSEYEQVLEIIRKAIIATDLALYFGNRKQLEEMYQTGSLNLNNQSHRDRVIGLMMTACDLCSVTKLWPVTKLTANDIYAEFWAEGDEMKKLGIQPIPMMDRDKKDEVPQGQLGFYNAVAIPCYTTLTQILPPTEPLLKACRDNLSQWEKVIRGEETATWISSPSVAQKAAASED
MEASURED_METRIC: pKi
# log scale: pKi equals minus log10 of the concentration in mol/L

Would you kindly share the measured pKi for Cc1nc(C)c(CNc2nc(OCC3CC3c3ccc(C#N)cn3)nc(Cl)c2C)s1 (racemic) ? 8.85

Would you kindly share the measured pKi for COc1ccnc(C2CC2COc2nc(Cl)c(C)c(NCc3sc(C)nc3C)n2)c1 (racemic) ? 11.00

Would you kindly share the measured pKi for Cc1nc(C)c(CNc2nc(OCC3CC3C3CCCN3C)nc(Cl)c2C)s1 (racemic; form 2) ? 7.27

Taken from ChEMBL document CHEMBL3745609.
